So I've got a bunch of compounds here, and I need their MIC values.
test system: E. faecalis ATCC 29212; assay: MIC determination, E. faecalis ATCC 29212; format: cell-based, Enterococcus faecalis; conditions: Enterococcus faecalis, ATCC29212, Table 1; read-out: MIC E. faecalis ATCC 29212
Answers are plain numbers, in µg/mL.

[
  {
    "Compound": "CC[C@H]1OC(=O)[C@H](C)[C@@H](O[C@H]2C[C@@](C)(OC)[C@@H](O)[C@H](C)O2)[C@H](C)[C@@H](O[C@@H]2O[C@H](C)C[C@H](N(C)C)[C@H]2O)[C@](C)(O)C[C@@H](C)C(=O)[C@H](C)[C@@H](O)[C@]1(C)O [Erythromycin, reference compound]",
    "MIC (µg/mL)": 2
  },
  {
    "Compound": "Oc1c(Cl)cc(Cl)c2cccnc12",
    "MIC (µg/mL)": 64
  },
  {
    "Compound": "O=[N+]([O-])c1ccc(O)c2ncccc12",
    "MIC (µg/mL)": 64
  },
  {
    "Compound": "C[C@@H](O)[C@H]1C(=O)N2C(C(=O)O)=C(S[C@@H]3CN[C@H](C(=O)N(C)C)C3)[C@H](C)[C@H]12 [Meropenem, reference compound]",
    "MIC (µg/mL)": 2
  }
]

Dear colleague, could you send me MIC for each of the items below? Thanks.
1. C[C@@H](O)[C@H]1C(=O)N2C(C(=O)O)=C(SCCN=CN)C[C@H]12 [Imipenem, reference compound]
2. CO/N=C(\C(=O)N[C@@H]1C(=O)N2C(C(=O)O)=C(CSc3nc(=O)c(=O)[nH]n3C)CS[C@H]12)c1csc(N)n1 [Ceftriaxone, reference compound]

Marked response:
1. 1
2. 64
